Test system: Saccharomyces cerevisiae BY4741 SeMeCo community
Experiment: z-score of subpopulation abundance vs DMSO median, subpopulation auxotrophic for HM; higher = larger share of this subpopulation than in DMSO controls
Conditions: 10 µM; 24 h; SM minimal medium; subpopulation (auxotrophy): HM
Structures can show the parent of a compound that is named as a salt.
Use -0.2 as the dividing line for z-score of subpopulation abundance, with the line itself on the condition met side and lower values as condition not met.

molecule	class.name
CNCCC(Oc1ccc(C(F)(F)F)cc1)c1ccccc1 (stereo not given) [Fluoxetine HCl]	condition not met
COc1cccc2c1C(=O)c1c(O)c3c(c(O)c1C2=O)C[C@@](O)(C(=O)CO)C[C@@H]3O[C@H]1C[C@H](N)[C@H](O[C@@H]2CCCCO2)[C@H](C)O1	condition not met
CC[C@@]1(O)C(=O)OCc2c1cc1n(c2=O)Cc2cc3cc(O)ccc3nc2-1 [Hydroxy Camptothecine]	condition met
COc1ccc([C@@H]2Sc3ccccc3N(CCN(C)C)C(=O)[C@@H]2OC(C)=O)cc1 [Diltiazem HCl]	condition not met
Nc1ccc(S(=O)(=O)Nc2ncccn2)cc1 [Sodium sulfadiazine]	condition met
OCc1ccc(Cl)cc1Cl	condition not met
CCc1nn(CCCN2CCN(c3cccc(Cl)c3)CC2)c(=O)n1CCOc1ccccc1 [Nefazodone hydrochloride]	condition met
O=c1ccc2cc(O)c(O)cc2o1	condition met
CCCCOc1cc(C(=O)NCCN(CC)CC)c2ccccc2n1 [Dibucaine HCl]	condition not met
C[N+]1(C)CCC(OC(=O)C(O)(c2ccccc2)C2CCCC2)C1 (stereo not given) [Glycopyrrolate]	condition not met
O=C(O)c1cc(-c2ccc(F)cc2F)ccc1O	condition not met
C[C@@H](O)[C@H]1C(=O)N2C(C(=O)O)=C(S[C@@H]3CN[C@H](C(=O)Nc4cccc(C(=O)O)c4)C3)[C@H](C)[C@H]12 [Ertapenem sodium]	condition not met
CC/C=C(\C(=O)N[C@@H]1C(=O)N2C(C(=O)OCOC(=O)C(C)(C)C)=C(COC(N)=O)CS[C@H]12)c1csc(N)n1 [Cefcapene Pivoxil Hydrochloride]	condition met
C=C1CCC2C(C)(CO)C(O)CCC2(C)C1CC=C1C=COC1=O (stereo not given) [Dehydroandrographolide]	condition met
CC[C@H]1OC(=O)[C@H](C)[C@@H](O[C@H]2C[C@@](C)(OC)[C@@H](O)[C@H](C)O2)[C@H](C)[C@@H](O[C@@H]2O[C@H](C)C[C@H](N(C)C)[C@H]2O)[C@](C)(O)C[C@@H](C)CN(C)[C@H](C)[C@@H](O)[C@]1(C)O [Azithromycin]	condition not met

* * *

Test system: Saccharomyces cerevisiae BY4741 SeMeCo community
Experiment: z-score of subpopulation abundance vs DMSO median, subpopulation auxotrophic for HLUM; higher = larger share of this subpopulation than in DMSO controls
Conditions: 10 µM; 24 h; SM minimal medium; subpopulation (auxotrophy): HLUM
Counter-ions that a name gives are not always drawn.
This section presents compounds with their documented z-score of subpopulation abundance values.
assay.endpoint: z-score of subpopulation abundance

> print(dat)
                                   compound  assay.value
1  C#C[C@]1(O)CC[C@H]2[C@@H]3CCc4cc(OC)ccc4[C@H]3CC[C@@]21C         0.02
2  CCN(CC)CC#CCOC(=O)C(O)(c1ccccc1)C1CCCCC1 (stereo not drawn) [Oxybutynin chloride]        -0.26
3   COC(=O)Nc1nc2cc(C(=O)c3ccccc3)ccc2[nH]1         1.44
4          O=C(O)CCC(=O)c1ccc(-c2ccccc2)cc1         0.69
5  COc1cc(O)c(C(=O)Nc2nc(C(=O)NCCN(C(C)C)C(C)C)cs2)cc1OC [Acotiamide hydrochloride]        -0.39
6                     COc1ccc(C(C)=O)c(O)c1         0.01
7  CC(=O)[C@@]1(O)CC[C@H]2[C@@H]3C[C@H](C)C4=CC(=O)CC[C@]4(C)[C@H]3CC[C@@]21C         0.34
8  COc1cccc(-c2c(C)n(Cc3c(F)cccc3C(F)(F)F)c(=O)n(C[C@H](NCCCC(=O)O)c3ccccc3)c2=O)c1F [Elagolix Sodium]        -0.29

* * *

Test system: Saccharomyces cerevisiae BY4741 SeMeCo community
Experiment: z-score of subpopulation abundance vs DMSO median, subpopulation auxotrophic for H; higher = larger share of this subpopulation than in DMSO controls
Details: 10 µM; 24 h; SM minimal medium; subpopulation (auxotrophy): H
assay.endpoint: z-score of subpopulation abundance

> print(dat)
                                   compound  assay.value
1  COCCOC(=O)C1=C(C)NC(C)=C(C(=O)OC/C=C/c2ccccc2)C1c1cccc([N+](=O)[O-])c1 (centres undefined) [Cilnidipine]         1.28
2  O=C(O)c1cccnc1Nc1cccc(C(F)(F)F)c1 [Niflumic acid]        -0.77
3  Nc1nc(N)nc(-c2cc(Cl)ccc2Cl)n1 [Irsogladine]        -0.31
4  Cc1cc(CC(C)CC(C)(C)C)n(O)c(=O)c1 (centres undefined) [Piroctone Olamine]         3.62
5  O=c1[nH]cnc2c1ncn2[C@@H]1O[C@H](CO)[C@@H](O)[C@H]1O [Isoprinosine]         0.09
6     C[n+]1ccccc1C=NO [Pralidoxime Iodide]        -0.39
7  CN(C)C[C@@H]1CCn2cc(c3ccccc32)C2=C(C(=O)NC2=O)c2cn(c3ccccc23)CCO1         1.52
8  Clc1ccc(CSC(Cn2ccnc2)c2ccc(Cl)cc2Cl)cc1 (centres undefined) [Sulconazole Nitrate]           22
9  CC(C)(C)C1CCC(CC2=C(O)c3ccccc3C(=O)C2=O)CC1 (centres undefined) [Buparvaquone]        -0.05

* * *

The entries below come with measured z-score of subpopulation abundance values attached.
Tested on: Saccharomyces cerevisiae BY4741 SeMeCo community
Test: z-score of subpopulation abundance vs DMSO median, subpopulation auxotrophic for HU; higher = larger share of this subpopulation than in DMSO controls
Conditions: 10 µM; 24 h; SM minimal medium; subpopulation (auxotrophy): HU
Where a name gives a salt, the structure may show the parent alone.
assay.endpoint: z-score of subpopulation abundance

compound	assay.endpoint	assay.value
CC(C)NC(=N)NC(=N)Nc1ccc(Cl)cc1	z-score of subpopulation abundance	-0.55
CC[C@@H]1/C=C(\C)C[C@H](C)C[C@H](OC)[C@H]2O[C@@](O)(C(=O)C(=O)N3CCCC[C@H]3C(=O)O[C@H](/C(C)=C/[C@@H]3CC[C@H](Cl)[C@H](OC)C3)[C@H](C)[C@@H](O)CC1=O)[C@H](C)C[C@@H]2OC	z-score of subpopulation abundance	-0.6
CN1CCN(CC(=O)N2c3ccccc3C(=O)Nc3cccnc32)CC1 [Pirenzepine dihydrochloride]	z-score of subpopulation abundance	-0.67
Cc1onc(-c2c(Cl)cccc2Cl)c1C(=O)N[C@@H]1C(=O)N2[C@@H]1SC(C)(C)[C@@H]2C(=O)O [Dicloxacillin Sodium]	z-score of subpopulation abundance	-0.23
O=C(N[C@H](CO)[C@H](O)c1ccc([N+](=O)[O-])cc1)C(Cl)Cl	z-score of subpopulation abundance	0.66
C[C@H](NCc1ccc(OCc2cccc(F)c2)cc1)C(N)=O [Safinamide Mesylate]	z-score of subpopulation abundance	0.27
CCCNCC(O)COc1ccccc1C(=O)CCc1ccccc1 (configuration not stated) [Propafenone HCl]	z-score of subpopulation abundance	0.58

* * *

z-score of subpopulation abundance overview
Tested on: Saccharomyces cerevisiae BY4741 SeMeCo community
Test: z-score of subpopulation abundance vs DMSO median, subpopulation auxotrophic for HUM; higher = larger share of this subpopulation than in DMSO controls
Conditions: 10 µM; 24 h; SM minimal medium; subpopulation (auxotrophy): HUM
Structures can show the parent of a compound that is named as a salt.
assay.endpoint: z-score of subpopulation abundance

compound	assay.value
O=C(c1ccc(OCCN2CCCCC2)cc1)c1c(-c2ccc(O)cc2)sc2cc(O)ccc12 [Raloxifene HCl]	0.06
C[C@H](NCc1ccc(OCc2cccc(F)c2)cc1)C(N)=O [Safinamide]	-0.17
CCCCOC(=O)c1ccc(O)cc1 [Butylparaben]	-1.38
CC1(C)S[C@@H]2[C@H](NC(=O)[C@H](NC(=O)N3CCNC3=O)c3ccccc3)C(=O)N2[C@H]1C(=O)O [Azlocillin sodium salt]	-1.31
O=[N+]([O-])c1ccc(O)c2ncccc12 [Nitroxoline]	19.7
CC(C)c1c(C(=O)Nc2ccccc2)c(-c2ccccc2)c(-c2ccc(F)cc2)n1CC[C@@H](O)C[C@@H](O)CC(=O)O [Atorvastatin Calcium]	7.67
NCC[C@H](O)C(=O)N[C@@H]1C[C@H](N)[C@@H](O[C@H]2O[C@H](CN)[C@@H](O)[C@H](O)[C@H]2O)[C@H](O)[C@H]1O[C@H]1O[C@H](CO)[C@@H](O)[C@H](N)[C@H]1O [Amikacin disulfate]	-0.51
NC(=O)C(c1ccccc1)(c1ccccc1)[C@@H]1CCN(CCc2ccc3c(c2)CCO3)C1 [Darifenacin HBr]	0.05
O=C(O)c1cc(O)c2c(c1)[C@H]([C@H]1c3cc(C(=O)O)cc(O)c3C(=O)c3c(O[C@@H]4O[C@H](CO)[C@@H](O)[C@H](O)[C@H]4O)cccc31)c1cccc(O[C@@H]3O[C@H](CO)[C@@H](O)[C@H](O)[C@H]3O)c1C2=O [Sennoside A]	-0.7
